Biological target: T1, recombinant human PCSK9 protein, His-tagged (Immunogen A, hPCSK9-His) (human, UniProt Q8NBP7 31-692, limits assumed, biotin-labelled in the ELISA and blocking assays (Biotin labeling kit))
T1 construct: also called human PCSK9-His; recombinant hPCSK9-His; not shown: His tag
Experiment: ELISA, biotin-hPCSK9-His on streptavidin plate; antibody 0.0067 nM
quantity kind: OD450 nm
Field: value (include unit after the number)

Some entries whose results are on file:
139G1C5, chimeric anti-PCSK9 mAb purified from hybridoma (antibody, V domains shown, From Harbour H2L2 mice: human variable regions, rat constant regions) VH: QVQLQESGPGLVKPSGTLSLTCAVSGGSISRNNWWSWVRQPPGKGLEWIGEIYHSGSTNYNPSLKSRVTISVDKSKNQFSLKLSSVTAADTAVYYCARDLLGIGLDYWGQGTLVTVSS VL: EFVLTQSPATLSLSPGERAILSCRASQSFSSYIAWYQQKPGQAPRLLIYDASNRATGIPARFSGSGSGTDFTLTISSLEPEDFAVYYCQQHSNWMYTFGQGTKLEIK :: 0.36 OD450 nm
152G2F7, chimeric anti-PCSK9 mAb purified from hybridoma (antibody, V domains shown, From Harbour H2L2 mice: human variable regions, rat constant regions) VH: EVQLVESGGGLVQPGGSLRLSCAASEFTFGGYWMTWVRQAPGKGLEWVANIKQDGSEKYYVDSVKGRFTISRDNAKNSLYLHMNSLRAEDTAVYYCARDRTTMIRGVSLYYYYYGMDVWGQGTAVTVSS VL: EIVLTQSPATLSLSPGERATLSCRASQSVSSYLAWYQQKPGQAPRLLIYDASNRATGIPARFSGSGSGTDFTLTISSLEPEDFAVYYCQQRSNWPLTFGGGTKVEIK :: 0.25 OD450 nm
103C11E8, chimeric anti-PCSK9 mAb purified from hybridoma (antibody, V domains shown, From Harbour H2L2 mice: human variable regions, rat constant regions) VH: QVQLQESGPGLVKPSGTLSLTCAVSGGSISSSNWWSWVRQPPGKGLEWIGEIYHSGSTNYNPSLKSRVTISVDKSKNQFSLKLSSVTAADTAVYYCARGIAVAGTDVMDAWGQGASVTVSS VL: EIVLTQSPATLSLSPGERATLSCRASQSVSSYLVWYQQKSGQAPRLLIYGTSNRATGIPARFSGSGSGTDFTLTISSLEPEDFALYYCQQRGNWMYTFGQGTKLEIK :: 0.21 OD450 nm
76A1B11, chimeric anti-PCSK9 mAb purified from hybridoma (antibody, V domains shown, From Harbour H2L2 mice: human variable regions, rat constant regions) VH: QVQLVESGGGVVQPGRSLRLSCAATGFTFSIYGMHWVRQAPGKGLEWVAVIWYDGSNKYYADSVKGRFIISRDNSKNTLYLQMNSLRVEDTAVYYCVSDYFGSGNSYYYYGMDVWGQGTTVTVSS VL: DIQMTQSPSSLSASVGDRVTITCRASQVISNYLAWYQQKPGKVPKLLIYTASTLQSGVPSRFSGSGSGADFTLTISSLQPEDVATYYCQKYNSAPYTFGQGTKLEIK :: 0.27 OD450 nm

Give OD450 nm for the following binder: 74C10A8, chimeric anti-PCSK9 mAb purified from hybridoma (antibody, V domains shown, From Harbour H2L2 mice: human variable regions, rat constant regions) VH: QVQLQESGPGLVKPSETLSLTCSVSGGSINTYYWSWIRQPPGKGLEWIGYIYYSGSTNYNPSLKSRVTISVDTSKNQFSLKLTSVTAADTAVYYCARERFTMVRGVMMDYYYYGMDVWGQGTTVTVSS VL: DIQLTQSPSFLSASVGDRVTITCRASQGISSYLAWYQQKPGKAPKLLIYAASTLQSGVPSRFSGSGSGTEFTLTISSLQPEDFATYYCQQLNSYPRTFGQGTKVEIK
0.3 OD450 nm

All figures here come from patent US20180355059A1.
